Organism: Sus scrofa
assay-notes: Displacement of [3H]-(+)-MK801 from pig brain phencyclidine binding site of NMDA receptor at 1 uM by scintillation counting
Recorded inhibition values for a group of compounds are listed next.
Could you give me the number in %? Just the number is fine.

INSERT INTO results (compound, meas_value) VALUES
  ('N[C@H]1CCN[C@H]([C@H]2COC(c3ccccc3)(c3ccccc3)O2)C1 (racemic)', 17),
  ('N[C@@H]1CCN[C@H]([C@H]2COC(c3ccccc3)(c3ccccc3)O2)C1 (racemic)', 44),
  ('O[C@H]1CCN[C@H]([C@@H]2COC(c3ccccc3)(c3ccccc3)O2)C1 (racemic)', 3),
  ('CN[C@H]1CCN[C@H]([C@H]2COC(c3ccccc3)(c3ccccc3)O2)C1 (racemic)', 30),
  ('CO[C@@H]1CCN[C@H]([C@@H]2COC(c3ccccc3)(c3ccccc3)O2)C1 (racemic)', 37);

Item CO[C@@H]1CCN[C@H]([C@H]2COC(c3ccccc3)(c3ccccc3)O2)C1 (racemic) has what recorded inhibition? 49

What value of measured inhibition is listed for O=C(OCc1ccccc1)N1CC[C@@H](NCc2ccccc2)C[C@H]1[C@@H]1COC(c2ccccc2)(c2ccccc2)O1 (racemic) ? 8

Looking for the measured inhibition of O=C(OCc1ccccc1)N1CC[C@H](NCc2ccccc2)C[C@H]1[C@@H]1COC(c2ccccc2)(c2ccccc2)O1 (racemic) , can you help? 30

What value of measured inhibition is listed for CN[C@H]1CCN[C@H]([C@@H]2COC(c3ccccc3)(c3ccccc3)O2)C1 (racemic) ? 16

Given the entry O[C@@H]1CCN[C@H]([C@@H]2COC(c3ccccc3)(c3ccccc3)O2)C1 (racemic) , report its measured inhibition. 0

What does the record list as inhibition for CN[C@H]1CCN(C(=O)OCc2ccccc2)[C@H]([C@H]2COC(c3ccccc3)(c3ccccc3)O2)C1 (racemic) ? 6

So what does the record say about inhibition for CN[C@@H]1CCN[C@H]([C@@H]2COC(c3ccccc3)(c3ccccc3)O2)C1 (racemic) ? 16

For the compound CN[C@@H]1CCN(C(=O)OCc2ccccc2)[C@H]([C@@H]2COC(c3ccccc3)(c3ccccc3)O2)C1 (racemic) , what inhibition is on record? 7

Look up inhibition for this compound: CN[C@@H]1CCN(C(=O)OCc2ccccc2)[C@H]([C@H]2COC(c3ccccc3)(c3ccccc3)O2)C1 (racemic) 10

Give the measured inhibition of N[C@H]1CCN[C@H]([C@@H]2COC(c3ccccc3)(c3ccccc3)O2)C1 (racemic) . 25

Consider the compound CN[C@@H]1CCN[C@H]([C@H]2COC(c3ccccc3)(c3ccccc3)O2)C1 (racemic) and give its measured inhibition. 40

Item under review: O=C1CCN[C@H]([C@@H]2COC(c3ccccc3)(c3ccccc3)O2)C1 (racemic) . Reported inhibition? 84

---

# inhibition listing for each entry below
System: Sigma-2 receptor (Rattus norvegicus)
assay-notes: Displacement of [3H]-di-o-tolylguanidine from sigma-2 receptor in rat liver homogenate at 1 uM by liquid scintillation counting
State just the number; it will be interpreted in %.

Worked examples, 5 compounds total:
INSERT INTO assay_data (compound, units_label, meas_value) VALUES
  ('CN[C@H]1CCN[C@H]([C@H]2COC(c3ccccc3)(c3ccccc3)O2)C1 (racemic)', '%', 37),
  ('CN[C@@H]1CCN[C@H]([C@H]2COC(c3ccccc3)(c3ccccc3)O2)C1 (racemic)', '%', 12),
  ('O[C@H]1CCN[C@H]([C@@H]2COC(c3ccccc3)(c3ccccc3)O2)C1 (racemic)', '%', 30),
  ('CN[C@H]1CCN(C(=O)OCc2ccccc2)[C@H]([C@H]2COC(c3ccccc3)(c3ccccc3)O2)C1 (racemic)', '%', 35),
  ('CO[C@H]1CCN[C@H]([C@H]2COC(c3ccccc3)(c3ccccc3)O2)C1 (racemic)', '%', 9);

Consider now this further compound.
# value lookup — system Sigma-2 receptor (Rattus norvegicus), readout inhibition, item N[C@H]1CCN[C@H]([C@@H]2COC(c3ccccc3)(c3ccccc3)O2)C1 (racemic) 13

---

Tested on: Sigma-2 receptor (Rattus norvegicus)
assay-notes: Displacement of [3H]-di-o-tolylguanidine from sigma-2 receptor in rat liver homogenate at 1 uM by liquid scintillation counting
# reported inhibition; entries follow
Field: numeric (%). Do not append units.

Here is how some compounds turned out for inhibition.
INSERT INTO assay_data (compound, assay_target, units_label, meas_value) VALUES
  ('CO[C@@H]1CCN[C@H]([C@H]2COC(c3ccccc3)(c3ccccc3)O2)C1 (racemic)', 'Sigma-2 receptor (Rattus norvegicus)', '%', 5),
  ('CO[C@H]1CCN[C@H]([C@@H]2COC(c3ccccc3)(c3ccccc3)O2)C1 (racemic)', 'Sigma-2 receptor (Rattus norvegicus)', '%', 23),
  ('O[C@@H]1CCN[C@H]([C@@H]2COC(c3ccccc3)(c3ccccc3)O2)C1 (racemic)', 'Sigma-2 receptor (Rattus norvegicus)', '%', 0),
  ('O=C(OCc1ccccc1)N1CC[C@@H](NCc2ccccc2)C[C@H]1[C@H]1COC(c2ccccc2)(c2ccccc2)O1 (racemic)', 'Sigma-2 receptor (Rattus norvegicus)', '%', 14),
  ('N[C@H]1CCN[C@H]([C@H]2COC(c3ccccc3)(c3ccccc3)O2)C1 (racemic)', 'Sigma-2 receptor (Rattus norvegicus)', '%', 17),
  ('CN[C@@H]1CCN(C(=O)OCc2ccccc2)[C@H]([C@H]2COC(c3ccccc3)(c3ccccc3)O2)C1 (racemic)', 'Sigma-2 receptor (Rattus norvegicus)', '%', 42),
  ('CN[C@H]1CCN(C(=O)OCc2ccccc2)[C@H]([C@@H]2COC(c3ccccc3)(c3ccccc3)O2)C1 (racemic)', 'Sigma-2 receptor (Rattus norvegicus)', '%', 18),
  ('CN[C@@H]1CCN(C(=O)OCc2ccccc2)[C@H]([C@@H]2COC(c3ccccc3)(c3ccccc3)O2)C1 (racemic)', 'Sigma-2 receptor (Rattus norvegicus)', '%', 28);

Item: O[C@@H]1CCN[C@H]([C@H]2COC(c3ccccc3)(c3ccccc3)O2)C1 (racemic) Test system: Sigma-2 receptor (Rattus norvegicus) Read-out: inhibition Value: ? 2

Notebook: pull reported inhibition for Sigma-2 receptor (Rattus norvegicus), entry O[C@H]1CCN[C@H]([C@H]2COC(c3ccccc3)(c3ccccc3)O2)C1 (racemic) 13

Request body: readout inhibition, system Sigma-2 receptor (Rattus norvegicus), query N[C@@H]1CCN[C@H]([C@H]2COC(c3ccccc3)(c3ccccc3)O2)C1 (racemic) . Return the value. 26

Enter reported inhibition observed with Sigma-2 receptor (Rattus norvegicus) for O=C(OCc1ccccc1)N1CC[C@H](NCc2ccccc2)C[C@H]1[C@H]1COC(c2ccccc2)(c2ccccc2)O1 (racemic) 8

Given the entry O=C(OCc1ccccc1)N1CC[C@@H](NCc2ccccc2)C[C@H]1[C@@H]1COC(c2ccccc2)(c2ccccc2)O1 (racemic) , what inhibition was observed with Sigma-2 receptor (Rattus norvegicus)? 23

Which inhibition is reported with Sigma-2 receptor (Rattus norvegicus) for this entry: CN[C@@H]1CCN[C@H]([C@@H]2COC(c3ccccc3)(c3ccccc3)O2)C1 (racemic) ? 44

# value lookup — system Sigma-2 receptor (Rattus norvegicus), readout inhibition, item N[C@@H]1CCN[C@H]([C@@H]2COC(c3ccccc3)(c3ccccc3)O2)C1 (racemic) 15

Notebook: pull reported inhibition for Sigma-2 receptor (Rattus norvegicus), entry CO[C@@H]1CCN[C@H]([C@@H]2COC(c3ccccc3)(c3ccccc3)O2)C1 (racemic) 18

---

# maps each entry to its inhibition
Species on record: Sus scrofa
assay-notes: Displacement of [3H]-(+)-MK801 from pig brain phencyclidine binding site of NMDA receptor at 1 uM by scintillation counting
Field: numeric (%). Do not append units.

INSERT INTO results (compound, meas_value) VALUES
  ('O=C(OCc1ccccc1)N1CC[C@@H](NCc2ccccc2)C[C@H]1[C@H]1COC(c2ccccc2)(c2ccccc2)O1 (racemic)', 20),
  ('CN[C@H]1CCN(C(=O)OCc2ccccc2)[C@H]([C@@H]2COC(c3ccccc3)(c3ccccc3)O2)C1 (racemic)', 7);

Dear colleague, I am looking for the recorded inhibition of the following compound: CO[C@H]1CCN[C@H]([C@@H]2COC(c3ccccc3)(c3ccccc3)O2)C1 (racemic) 21

I am curious: what inhibition value has been reported for N[C@@H]1CCN[C@H]([C@@H]2COC(c3ccccc3)(c3ccccc3)O2)C1 (racemic) ? 26

Find the recorded inhibition belonging to O=C(OCc1ccccc1)N1CC[C@H](NCc2ccccc2)C[C@H]1[C@H]1COC(c2ccccc2)(c2ccccc2)O1 (racemic) and report it. 15

---

assay-notes: Displacement of [3H]-(+)-MK801 from pig brain phencyclidine binding site of NMDA receptor by scintillation counting
Set-up: species or system Sus scrofa
assay-endpoint: pKi
// returns pKi (minus log10 of molar concentration), number only

INSERT INTO assay_data (compound, assay_endpoint, meas_value) VALUES
  ('O[C@H]1CCN[C@H]([C@H]2COC(c3ccccc3)(c3ccccc3)O2)C1 (racemic)', 'pKi', 7.36),
  ('O[C@@H]1CCN[C@H]([C@H]2COC(c3ccccc3)(c3ccccc3)O2)C1 (racemic)', 'pKi', 6.28),
  ('O=C1CCN[C@H]([C@H]2COC(c3ccccc3)(c3ccccc3)O2)C1 (racemic)', 'pKi', 6.33);

Switching to the query record.
Which pKi reading was recorded for the compound CO[C@H]1CCN[C@H]([C@H]2COC(c3ccccc3)(c3ccccc3)O2)C1 (racemic) ? 6.01
